Biological target: UniProt:P11362
Test: Inhibition of N-terminal GST-tagged human FGFR1 cytoplasmic domain (398 to 822 residues) expressed in baculovirus expression system at […] using FAM-labeled peptide as substrate after 10 mins by mobility shift assay relative to control
endpoint.label: inhibition (%)
Write the value in % as a bare number.

{"compound": "Clc1cccc(Nc2cc(Nc3cccc(Cl)c3)ncn2)c1", "units.of.measure": "%", "inhibition": -9.8}
{"compound": "CCCC(C)OC(=O)CCC(=O)Nc1cc(Nc2cccc(Br)c2)ncn1 (stereo unspecified)", "units.of.measure": "%", "inhibition": -4.9}
{"compound": "CN1CCN(c2cc(NC(=O)/C=C/c3ccc(F)cc3)ncn2)CC1", "units.of.measure": "%", "inhibition": -6.1}
{"compound": "COc1ccc(Nc2cc(NC(=O)c3ccccc3)ncn2)c([N+](=O)[O-])c1", "units.of.measure": "%", "inhibition": 5.2}

Respond only with inhibition recorded for Clc1ccc(Nc2cc(Nc3ccc(Cl)cc3)ncn2)cc1
-1.3

Identify measured inhibition corresponding to COc1cccc(Nc2cc(NC(=O)c3ccc(F)cc3)ncn2)c1
4.3
